Give measured E. coli MIC for each item. Keep answers brief.
# Tested on: Escherichia coli (UTI89)
# Protocol notes: Antimicrobial kill (microdilution) assay, MIC/MBC by CFU count
# Assay type: cell-based
# Reported conditions: lowest concentration that inhibits the growth of 90% of the inoculation; 3 hours, 0.1×PBS
# Method: The antimicrobial activity of RNase 7 and its fragments was estimated using a microdilution assay. […] The antimicrobial activity was determined by the number of colony-forming units (CFUs) the following day. […] Antimicrobial activities of the recombinant peptides were estimated with a microdilution assay. […] After incubation on Agar plates overnight at 37° C., the number of colony-forming units (CFUs) at each peptide concentration was determined. […]
One number for each entry, in µM.

Molecule: F:1-83: recombinant N-terminal RNase 7 fragment, amino acids 1 to 83 (SEQ ID NO: 4), N-terminal His tag (protein, listed as Homo sapiens, N-terminal His tag) KPKGMTSSQWFKIQHMQPSPQACNSAMKNINKHTKRCKDLNTFLHEPFSSVAATCQTPKIACKNGDKNCHQSHGPVSLTMCKL
Units of measure: µM
E. coli MIC: 0.43

Turning now to a further record.
The reported value for F:56-128: recombinant C-terminal RNase 7 fragment, amino acids 56 to 128, N-terminal His tag (protein, left off: small tags and cut ends, recombinant C-terminal RNase 7 fragment, amino acids 56 to 128, N-terminal His tag) QTPKIACKNGDKNCHQSHGPVSLTMCKLTSGKYPNCRYKEKRQNKSYVVACKPPQKKDSQQFHLVPVHLDRVL in terms of E. coli MIC is 0.83
